Reference source for all entries: PubChem BioAssay (NCI)

System: HT29 colon
Assay: NCI tumour cell line growth inhibition, 48 h
TGI of 20 µM or higher: t. Under 20 µM: f.

Is TGI for CCCSS[C@H]1NC(=O)[C@H]1NC(=O)COc1ccccc1 at or above 20 µM?
t

Another compound: CCOC(=O)CCC(NC(=O)c1ccc(OCc2ccc3nc(-c4ccccc4)c(Cl)nc3c2)cc1)C(=O)OCC (configuration not stated)
t

Try this compound too: O=Cc1c(O)c(C(=O)Nc2ccc3[nH]c(=O)[nH]c3c2)cc2ccccc12
t

// repeat for O=C(O)CN1C(=O)C(Cc2ccc(O)cc2)N=C(c2cccc(O)c2)c2ccccc21 (configuration not stated) and report
t

// query: CC(=O)OCC1OC(n2c(-c3ccc(C)cc3)cc(-c3ccccc3)c(C#N)c2=O)C(OC(C)=O)C(OC(C)=O)C1OC(C)=O (configuration not stated)
t

Repeat with O=C(c1ccccc1)c1cn(/N=C\c2ccccc2)c(=O)nc1-c1ccccc1
t

Now consider CC(C)(C)OC(=O)N1C(c2cccnc2)=CC[C@H]2C3CC=C(c4cccnc4)[C@@]3(C)CC[C@@H]21 (some centres not stated) and answer again.
f

Query O=C1C[C@@H]2/C(=C(O)\C=C\c3ccccc3)C(=O)C=C[C@@H]2O1 next
f

What do you have for Cc1ccc(NC(=O)c2cc(S(=O)(=O)Nc3nc4ncccc4[nH]3)c(SSc3cc(Cl)c(C(=O)Nc4ccc(C)cc4)cc3S(=O)(=O)Nc3nc4ncccc4[nH]3)cc2Cl)cc1 ?
t

Item: CCC(=O)Nc1ccc(N2C(=O)C(Cl)C2c2ccc(SC)cc2)cc1 (configuration not stated)
t

How about this compound: Oc1ccc2c(c1)-c1c(c3ccccc3n1CCN1CCOCC1)CC2
t

Also need Cc1ccc(O)c(NC(=O)c2ccc(CNc3ccnc(C(F)(F)F)c3)cc2)c1 , thanks.
t

Also need O=C1C(c2c(O)[nH]c3ccc(Br)cc23)=Nc2ccccc21 , thanks.
f

Entry COc1ccc2nc(-c3ccc(O)cc3)sc2c1 please
t

Cc1cc(N2CCOCC2)cc2[nH]c(-c3c(NC[C@@H](O)c4cccc(Cl)c4)cc[nH]c3=O)nc12 , same question.
f

Same again, this time with O=C(NC12CC3CC(CC(C3)C1)C2)C(=O)c1c[nH]c2ccccc12
f

What would you report for NC(=S)N/N=C\c1nccc2ccccc12 ?
t

Here is the next compound: Cc1ccc(S(=O)(=O)NNCNC(=O)c2ccccc2)cc1
t

Cool, now COc1cc(Cc2nccc3cc(OC)c(OC)cc23)c(N=NN(C)C)cc1OC
t

Next entry: CCCCCCCCCCCCCCCCCCN(C)CC(COP(=O)([O-])OCC[N+](C)(C)C)OC (configuration not stated)
f

Follow-up entry: CC1(C)C2C=CC1C(=O)CC2 (configuration not stated)
t

Queued: CC(=O)C1=C(O)CC2CC3c4[nH]c5ccccc5c4CCN3CC2C1 (configuration not stated)
t

Another: CC1=C(C)Cc2c(O)ccc(O)c2C1
t

Do the same for CSc1nc(SC)c2c(CO)c(Br)n(Cc3ccccc3)c2n1 please
t

Then this compound: CC(C)CC(NC(=O)OC(C)(C)C)C(=O)Nc1ccc(Nc2nc(F)nc(-c3c4ccccc4cn3C)n2)cc1 (configuration not stated)
t

Then what about the compound CCOC(=O)C(SCCO)C(C(=O)OCC)n1ccc(=O)[nH]c1=O (configuration not stated) ?
t

Now try O=C(Nc1ccc([N+](=O)[O-])cc1Cl)c1cccc([N+](=O)[O-])c1O .
t
